src = patent US20250326748A1

# System: K562 cells
# assayInfo: Cell viability, Cell Titer Glo 2.0 assay, K562
# assayContext: 72 hours
Structures can show the parent of a compound that is named as a salt.
measuredAttribute: Effect on Cell Viability, K562

>>> print(df.to_string())
                                    compound               measuredattribute           result
 0  Cn1cc2cc(-c3cc(Cl)c4cc(N5CCNCC5)cnc4n3)cc(F)c2n1  Effect on Cell Viability, K562  B (100-1000 nM)
 1  Cn1cc2cc(-c3cnc4cc(N5CC[C@H](NC6CC6)C5)ccc4n3)c(O)c(F)c2n1  Effect on Cell Viability, K562      A (<100 nM)
 2  C[C@H]1CN(c2cnc3nc(-c4cc5cn(C)nc5cc4O)cc(Cl)c3c2)C[C@H](C)N1C  Effect on Cell Viability, K562  B (100-1000 nM)
 3  CNC1CCN(c2cnc3nc(-c4cc5cn(C)nc5c(C)c4O)ccc3n2)C1 (stereo not drawn)  Effect on Cell Viability, K562  B (100-1000 nM)
 4  CCNC1CCN(c2cnc3nc(-c4cc5cn(C)nc5c(F)c4O)ccc3c2)C1 (stereo not drawn)  Effect on Cell Viability, K562      A (<100 nM)
 5  COc1cc(-c2cc3cn(C)nc3c(C)c2O)nc2ncc(N3CCNCC3)cc12 [Compound 152, 2,2,2-trifluoroacetate]  Effect on Cell Viability, K562  B (100-1000 nM)
 6  Cn1cc2cc(-c3cc(Cl)c4cc(N5CCNCC5)cnc4n3)c(O)cc2n1  Effect on Cell Viability, K562  B (100-1000 nM)
 7  C[C@@H]1CN(c2cnc3nc(-c4cc5cn(C)nc5c(F)c4O)ccc3c2)C[C@H](C)N1  Effect on Cell Viability, K562      A (<100 nM)
 8  C[C@H]1CN(c2cnc3nc(-c4cc(F)c5nn(C)cc5c4)ccc3c2)CCN1  Effect on Cell Viability, K562  B (100-1000 nM)
 9  CCN[C@H]1CCN(c2cnc3nc(-c4cc5cn(C)nc5cc4O)ccc3c2)C1 [Compound 311, hydrochloride]  Effect on Cell Viability, K562  B (100-1000 nM)
10  Cn1cc2cc(-c3ccc4cc(N5CC[C@H](NC(C)(C)C)C5)cnc4n3)c(O)cc2n1 (single isomer, unassigned)  Effect on Cell Viability, K562  B (100-1000 nM)
11  CN[C@@H]1CCN(c2cnc3nc(-c4cc5cn(C)nc5c(C)c4O)nc(OC)c3c2)C1  Effect on Cell Viability, K562      A (<100 nM)
12  Cc1c(O)c(-c2cc(Cl)c3cc(N4CCNCC4)cnc3n2)cc2cn(C)nc12  Effect on Cell Viability, K562      A (<100 nM)
13  Cl.Cn1cc2cc(-c3cc(Cl)c4cc(N5CC[C@H](NCCF)C5)cnc4n3)c(O)cc2n1  Effect on Cell Viability, K562  B (100-1000 nM)
14  Cn1cc2cc(-c3cc(Cl)c4cc(N5CCNCC5)cnc4n3)c(O)c(F)c2n1  Effect on Cell Viability, K562      A (<100 nM)
15  C[C@@H]1CN(c2cnc3nc(-c4cc5cn(C)nc5c(F)c4O)cc(Cl)c3c2)C[C@@H](C)N1  Effect on Cell Viability, K562      A (<100 nM)
16  Cn1cc2cc(-c3cnc4nc(N5CCC(NC6CC6)C5)ccc4n3)c(O)c(F)c2n1 (stereo not drawn)  Effect on Cell Viability, K562  B (100-1000 nM)
17  Cc1c(O)c(-c2cc(Cl)c3cc(NC4CCNC4)cnc3n2)cc2cn(C)nc12 (stereo not drawn)  Effect on Cell Viability, K562  B (100-1000 nM)

* * *

We begin with a simple list: items and their reported IC50.
# Tested on: MYB mRNA
# assayInfo: Splicing RT-qPCR assay, MYB canonical (CJ) and alternative (AJ) junction mRNA
# Type: cell-based, human
# assayContext: Homo sapiens, canonical junction mRNA, qPCR panel; read-out: MYB CJ (decrease in CJ mRNA levels, IC50)
measuredAttribute: IC50

>>> df
                                    compound  measuredattribute            result
 0  Cn1cc2cc(-c3ccc4cc(N5CC[C@H](NC(C)(C)C)C5)cnc4n3)c(O)cc2n1 (single isomer, unassigned)               IC50    100 to 1000 nM
 1  C[C@@H]1CN(c2cnc3nc(-c4ccc5nn(C)cc5c4)cc(Cl)c3c2)C[C@H](C)N1               IC50  1000 to 10000 nM
 2  CNC1CCN(c2cnc3nc(-c4cc5cn(C)nc5cc4O)cc(Cl)c3c2)C1 (stereo not shown)               IC50          < 100 nM
 3  Cn1cc2cc(-c3cnc4nc(N5CCC(NC(C)(C)C)C5)ccc4c3)c(O)cc2n1 (stereo not shown)               IC50        > 10000 nM
 4  Cc1cn2cc(-c3cnc4nc(C5CCNCC5)ccc4c3)cc(C)c2n1               IC50          < 100 nM
 5  Cn1cc2cc(-c3cc(Cl)c4cc(N5CCNC6(CC6)C5)cnc4n3)cc(F)c2n1               IC50    100 to 1000 nM
 6  Cc1c(O)c(-c2cc(Cl)c3cc(N4C[C@H](C)N[C@@H](C)C4)cnc3n2)cc2cn(C)nc12               IC50          < 100 nM
 7  C[C@@H]1CN(c2cnc3nc(-c4cc(F)c5nn(C)cc5c4)cc(Cl)c3c2)CCN1               IC50          < 100 nM
 8  Cc1c(O)c(-c2cc(Cl)c3cc(N4C[C@@H]5CCCN(C)[C@@H]5C4)cnc3n2)cc2cn(C)nc12               IC50    100 to 1000 nM
 9  Cc1cn2nc(-c3ccc4c(Cl)c(N5C[C@H](C)N[C@@H](C)C5)cnc4n3)cc(C)c2n1               IC50          < 100 nM
10  Cc1c(N2C[C@H](C)N[C@@H](C)C2)cnc2nc(-c3cc4cn(C)nc4c(C)c3O)ccc12               IC50          < 100 nM
11  Cc1c(O)c(-c2cc(Cl)c3cc(N4CCNC(C)C4)cnc3n2)cc2cn(C)nc12 (stereo not shown)               IC50    100 to 1000 nM
12  Cn1cc2cc(-c3cnc4nc(N5CCC(NC6CC6)C5)ccc4n3)c(O)c(F)c2n1 (stereo not shown)               IC50          < 100 nM
13  Cc1cn2nc(-c3cnc4nc(C5CCNCC5)ccc4c3)cc(C)c2n1               IC50  1000 to 10000 nM
14  Cc1cn2cc(-c3cc(Cl)c4cc(N5C[C@H](C)NC6(CC6)C5)cnc4n3)cc(F)c2n1               IC50    100 to 1000 nM
15  Cc1cn2nc(-c3cc(Cl)c4cc(N5CCC(N(C)C)CC5)cnc4n3)cc(C)c2n1               IC50    100 to 1000 nM
16  Cc1c(O)c(-c2ncc3cc(N4CC[C@H](N)C4)cnc3n2)cc2cn(C)nc12 [Compound 160, 2,2,2-trifluoroacetate]               IC50          < 100 nM
17  CN[C@@H]1CCN(c2cnc3nc(-c4cc(C)c5nc(C)cn5n4)cc(Cl)c3c2)C1               IC50          < 100 nM
18  Cc1c(O)c(-c2cc(Cl)c3cc(N4C[C@@H](C)N[C@@H](C)C4)cnc3n2)cc2cn(C)nc12               IC50          < 100 nM

* * *

# System: HTT mRNA
# assayInfo: Splicing RT-qPCR assay, HTT canonical (CJ) and alternative (AJ) junction mRNA
# Type: cell-based, human
# assayContext: Homo sapiens, canonical junction mRNA, qPCR panel; read-out: HTT CJ (decrease in CJ mRNA levels, IC50)
Structures can show the parent of a compound that is named as a salt.
measuredAttribute: IC50

>>> print(df.to_string())
                                   compound            result
0  Cn1cc2cc(-c3cc(Cl)c4cc(N5CCNC6(CC6)C5)cnc4n3)cc(F)c2n1  1000 to 10000 nM
1  Cc1cn2cc(-c3cnc4nc(C5CCNCC5)ccc4c3)cc(C)c2n1          < 100 nM
2  CCN[C@H]1CCN(c2cnc3nc(-c4cc5cn(C)nc5cc4O)ccc3c2)C1 [Compound 311, hydrochloride]    100 to 1000 nM
3  Cn1cc2cc(-c3cc(Cl)c4cc(N5CCNC(C6CC6)C5)cnc4n3)cc(F)c2n1 (centres unmarked)  1000 to 10000 nM
4  Cc1c(O)c(-c2ccc3cc(N4CCNCC4)cnc3n2)cc2cn(C)nc12    100 to 1000 nM
